# TARGET UNDER TEST: T1, Fusion protein of extracellular domain of human TIGIT and human IgG1 Fc fragment (human TIGIT ECD-hFc) (human)
# T1 construct: The entry includes the signal peptide (limits not recoverable) and the human IgG1 Fc
# T1 sequence (chain, as listed by the source limits assumed): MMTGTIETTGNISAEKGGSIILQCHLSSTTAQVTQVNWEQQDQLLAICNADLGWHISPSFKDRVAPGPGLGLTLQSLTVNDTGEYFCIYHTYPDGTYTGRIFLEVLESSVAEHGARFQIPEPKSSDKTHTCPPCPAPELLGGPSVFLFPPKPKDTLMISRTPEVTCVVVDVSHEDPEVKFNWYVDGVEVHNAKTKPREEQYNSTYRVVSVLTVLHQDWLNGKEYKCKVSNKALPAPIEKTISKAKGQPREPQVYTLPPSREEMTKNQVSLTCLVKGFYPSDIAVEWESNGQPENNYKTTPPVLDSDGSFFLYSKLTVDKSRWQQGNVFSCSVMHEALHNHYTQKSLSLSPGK
# ASSAY COMMENT: blocking of TIGIT ECD-hFc binding to CHO-K1 CD155 cells
pIC50: −log10 of the molar value.
The entries below come with measured pIC50 values attached.
MEASURE NAME: pIC50

>>> recorded_measurement("TIGIT-006-H3L1 (antibody, V domains shown, Humanized anti-TIGIT antibody) VH: EVQLQESGPGLVKPSETLSLTCAVSGYSMTSDYWNWIRQPPGKKLEWIGYISYSGRTYYNPSLKSRVTISRDTSKNQFSLKLSSVTAADTAVYYCARGDYSNYGGAMYDWGQGTTVTVSS VL: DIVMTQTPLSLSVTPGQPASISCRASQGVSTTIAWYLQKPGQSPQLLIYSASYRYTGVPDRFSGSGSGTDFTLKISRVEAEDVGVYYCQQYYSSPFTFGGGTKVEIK")
9.20
>>> recorded_measurement("TIGIT-002-H1L2 (antibody, V domains shown, Humanized anti-TIGIT antibody) VH: EVQLQESGPGLVKPSETLSLTCAVSGYSITSDSWNWIRQPPGKGLEWIGYISYSGNTYYNPSLKSRVTISRDTSKNQFSLKLSSVTAADTAVYYCARLDFSNYGGAVDYWGQGTTVTVSS VL: DIVMTQTPLSLSVTPGQPASISCKASQNVRTAVAWYQQKPGQSPQLMIYSASYRYTGVPDRFSGSGSGTDFTLKISRVEAEDVGVYYCQQYYTTPWTFGGGTKVEIK")
9.38
>>> recorded_measurement("TIGIT-CHI-005 (antibody, V domains shown, Human-mouse chimeric antibody) VH: QVQLQQSGAELVRPGTSVKVSCKASGYAFTNYLIEWVKQRPGQGLEWIGVINPGSGGTNYKEKFKGKATLTADKSSSTAYMQLSSLTSEDSAVYFCARGEYFFFDYWGQGTTLTVSS VL: DIVMTQSHKFMSTSVGDRVSITCKASQHVSNGVAWYQHKPGQSPKLLIYSASYRYTGVPDRFTGTGSGTDFTFTISSVQAEDLAVYYCQQHYNTPHTFGGGTKLEIK")
9.44
>>> recorded_measurement("TIGIT-002-H2L3 (antibody, V domains shown, Humanized anti-TIGIT antibody) VH: EVQLQESGPGLVKPSETLSLTCAVSGYSITSDSWNWIRQPPGKKLEWIGYISYSGNTYYNPSLKSRVTISRDTSKNQFSLKLSSVTAADTAVYYCARLDFSNYGGAVDYWGQGTTVTVSS VL: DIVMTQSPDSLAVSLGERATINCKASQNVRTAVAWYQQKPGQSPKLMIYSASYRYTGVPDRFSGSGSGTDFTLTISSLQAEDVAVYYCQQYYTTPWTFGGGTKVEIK")
9.27
>>> recorded_measurement("TIGIT-006-H5L3 (antibody, V domains shown, Humanized anti-TIGIT antibody) VH: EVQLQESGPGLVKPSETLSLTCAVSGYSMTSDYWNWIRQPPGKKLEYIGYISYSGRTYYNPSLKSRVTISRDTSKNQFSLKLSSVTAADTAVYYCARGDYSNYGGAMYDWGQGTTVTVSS VL: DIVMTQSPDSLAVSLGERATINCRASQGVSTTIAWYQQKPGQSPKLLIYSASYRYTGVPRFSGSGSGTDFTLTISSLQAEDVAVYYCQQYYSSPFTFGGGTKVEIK")
9.23
>>> recorded_measurement("TIGIT-006-H2L1 (antibody, V domains shown, Humanized anti-TIGIT antibody) VH: EVQLQESGPGLVKPSETLSLTCAVSGYSMTSDYWNWIRQPPGKGLEWIGYISYSGRTYYNPSLKSRVTISRDTSKNQFSLKLSSVTAADTAVYYCARGDYSNYGGAMYDWGQGTTVTVSS VL: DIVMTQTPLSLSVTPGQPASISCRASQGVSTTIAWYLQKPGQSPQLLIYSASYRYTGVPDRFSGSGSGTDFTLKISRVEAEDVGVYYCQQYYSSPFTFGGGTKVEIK")
9.28
>>> recorded_measurement("TIGIT-002-H2L1 (antibody, V domains shown, Humanized anti-TIGIT antibody) VH: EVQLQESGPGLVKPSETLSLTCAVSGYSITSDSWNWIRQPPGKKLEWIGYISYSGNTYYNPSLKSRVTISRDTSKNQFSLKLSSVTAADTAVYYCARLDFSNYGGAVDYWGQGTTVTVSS VL: DIVMTQTPLSLSVTPGQPASISCKASQNVRTAVAWYLQKPGQSPQLMIYSASYRYTGVPDRFSGSGSGTDFTLKISRVEAEDVGVYYCQQYYTTPWTFGGGTKVEIK")
9.19
>>> recorded_measurement("TIGIT-006-H2L3 (antibody, V domains shown, Humanized anti-TIGIT antibody) VH: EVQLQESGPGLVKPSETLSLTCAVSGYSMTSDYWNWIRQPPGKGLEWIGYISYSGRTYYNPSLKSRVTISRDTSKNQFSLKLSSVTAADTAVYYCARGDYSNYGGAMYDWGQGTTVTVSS VL: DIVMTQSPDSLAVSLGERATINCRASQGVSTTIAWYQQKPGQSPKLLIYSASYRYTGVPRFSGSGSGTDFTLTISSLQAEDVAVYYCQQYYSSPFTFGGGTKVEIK")
9.20
>>> recorded_measurement("TIGIT-070-H3L1 (antibody, V domains shown, Humanized anti-TIGIT antibody) VH: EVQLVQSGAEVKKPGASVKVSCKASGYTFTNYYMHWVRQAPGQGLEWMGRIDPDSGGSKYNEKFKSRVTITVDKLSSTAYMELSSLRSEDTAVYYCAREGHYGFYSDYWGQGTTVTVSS VL: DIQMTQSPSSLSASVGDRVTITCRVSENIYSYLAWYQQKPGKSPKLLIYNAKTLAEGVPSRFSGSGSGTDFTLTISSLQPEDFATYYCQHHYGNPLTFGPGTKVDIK")
9.33
>>> recorded_measurement("TIGIT-002-H4L1 (antibody, V domains shown, Humanized anti-TIGIT antibody) VH: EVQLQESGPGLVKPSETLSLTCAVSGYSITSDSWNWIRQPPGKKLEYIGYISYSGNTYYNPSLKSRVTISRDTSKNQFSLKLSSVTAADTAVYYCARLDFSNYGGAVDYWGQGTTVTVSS VL: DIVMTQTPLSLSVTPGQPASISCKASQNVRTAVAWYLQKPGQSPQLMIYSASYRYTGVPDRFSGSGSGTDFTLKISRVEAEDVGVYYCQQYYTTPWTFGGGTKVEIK")
9.35
